For each of the compounds below, state its pIC50.
test system: B16F10; test: MTT cytotoxicity assay, B16F10; format: cell-based, murine; conditions: Mus musculus, B16-F10; MTT, 48 h continuous treatment; read-out: IC50 B16F10
One number for each entry, as −log10 of the molar value.

compound: CCCCCCCCCCCC[N+](C)(CCCCCCCCCCCC)CCNC(=O)CCC(=O)O[C@@H](C)[C@H]1CCC2C3CCC4=CC(=O)CC[C@]4(C)C3CC[C@@]21C.[Cl-] (stereo partly drawn) [Compound 6d]
pIC50: 5.02

// switching to the query compound
# input compound: CCCCCCCC[N+](C)(CCCCCCCC)CCNC(=O)CCC(=O)O[C@@H](C)[C@H]1CCC2C3CCC4=CC(=O)CC[C@]4(C)C3CC[C@@]21C.[Cl-] (stereo partly drawn) [Compound 6b] ; wanted: its pIC50
5.00

* * *

system: COS-1; assay: MTT cytotoxicity assay, COS-1; format: cell-based; settings: Chlorocebus aethiops, COS-1, 48 h, read-out: IC50 COS-1
pIC50: −log10 of the molar value.
attributeMeasured: pIC50

# input compound: CCCCCCCCCC[N+](C)(CCCCCCCCCC)CCNC(=O)CCC(=O)O[C@@H](C)[C@H]1CCC2C3CCC4=CC(=O)CC[C@]4(C)C3CC[C@@]21C (stereo partly shown) [Compound 6c] ; wanted: its pIC50
< 4.70

* * *

For each of the molecules below, state its pIC50.
system: T47D; test: MTT cytotoxicity assay, T47D; type: cell-based; settings: Homo sapiens, MTT, 48 h continuous treatment, read-out: IC50 T47D
Numbers only, as −log10 of the molar value.

Observe how each entry below is paired with its result.
molecule: CCCCCC[N+](C)(CCCCCC)CCNC(=O)CCC(=O)O[C@@H](C)[C@H]1CCC2C3CCC4=CC(=O)CC[C@]4(C)C3CC[C@@]21C (stereo partly shown)
readoutValue: 5.13
--
molecule: CCCCCCCC[N+](C)(CCCCCCCC)CCNC(=O)CCC(=O)O[C@@H](C)[C@H]1CCC2C3CCC4=CC(=O)CC[C@]4(C)C3CC[C@@]21C.[Cl-] (stereo partly shown)
readoutValue: 5.39

// switching to the query molecule
# input molecule: CCCCCCCCCCCC[N+](C)(CCCCCCCCCCCC)CCNC(=O)CCC(=O)O[C@@H](C)[C@H]1CCC2C3CCC4=CC(=O)CC[C@]4(C)C3CC[C@@]21C.[Cl-] (stereo partly shown) ; wanted: its pIC50
4.89

* * *

For each of the compounds below, state its IC50.
test system: B16F10; assay: MTT cytotoxicity assay, B16F10; assay type: cell-based, murine; conditions: Mus musculus, B16-F10; MTT, 48 h continuous treatment; read-out: IC50 B16F10

Observe how each entry below is paired with its result.
compound: CCCCCCCCCCCCCCCCCC[N+](C)(CCCCCCCCCCCCCCCCCC)CCNC(=O)CCC(=O)O[C@@H](C)[C@H]1CCC2C3CCC4=CC(=O)CC[C@]4(C)C3CC[C@@]21C (stereo partly shown)
attributeMeasured: IC50
readoutValue: > 15 µM
--
compound: CCCCCCCCCCCCCC[N+](C)(CCCCCCCCCCCCCC)CCNC(=O)CCC(=O)O[C@@H](C)[C@H]1CCC2C3CCC4=CC(=O)CC[C@]4(C)C3CC[C@@]21C (stereo partly shown)
attributeMeasured: IC50
readoutValue: > 15 µM

List IC50 for every entry below, keeping the order given.
1. CC(=O)[C@H]1CC[C@H]2[C@@H]3CCC4=CC(=O)CC[C@]4(C)[C@H]3CC[C@]12C
2. CCCCCCCCCCCCCCCC[N+](C)(CCCCCCCCCCCCCCCC)CCNC(=O)CCC(=O)O[C@@H](C)[C@H]1CCC2C3CCC4=CC(=O)CC[C@]4(C)C3CC[C@@]21C (stereo partly shown)

1: > 20 µM; 2: > 15 µM

* * *

Tested on: B16F10
Assay: MTT cytotoxicity assay, B16F10
Type: cell-based, murine
Details: Mus musculus, B16-F10, 48 h, read-out: IC50 B16F10, MTT, 48 h continuous treatment
Description: All cells were grown into mycoplasma free condition. […] All cells were grown up to 75-85% confluency after which cells were trypsinized, counted and seeded, in 96-well plates for cell viability studies, 6-well plates for apoptosis studies, 60 mm dish for cell cycle studies and in 25 cm^2 or 75 cm^2 tissue culture flasks for Western blot studies. […]
attributeMeasured: pIC50
One number for each entry, as −log10 of the molar value.

# input compound: CCCCCCCCCC[N+](C)(CCCCCCCCCC)CCNC(=O)CCC(=O)O[C@@H](C)[C@H]1CCC2C3CCC4=CC(=O)CC[C@]4(C)C3CC[C@@]21C (stereo partly shown) ; wanted: its pIC50
5.44

* * *

system: MDA-MB-231; test: MTT cytotoxicity assay, MDA-MB-231; assay type: cell-based, human; details: read-out: IC50 MDA-MB-231; MTT, 48 h continuous treatment
attributeMeasured: IC50 (µM)
Numbers only, in µM.

# input molecule: CCCCCCCCCC[N+](C)(CCCCCCCCCC)CCNC(=O)CCC(=O)O[C@@H](C)[C@H]1CCC2C3CCC4=CC(=O)CC[C@]4(C)C3CC[C@@]21C (stereo partly shown) ; wanted: its IC50
3.63

* * *

System: T47D
Assay: MTT cytotoxicity assay, T47D
Assay type: cell-based
Conditions: Homo sapiens, MTT, 48 h continuous treatment, read-out: IC50 T47D
Protocol: All cells were grown into mycoplasma free condition. […] All cells were grown up to 75-85% confluency after which cells were trypsinized, counted and seeded, in 96-well plates for cell viability studies, 6-well plates for apoptosis studies, 60 mm dish for cell cycle studies and in 25 cm^2 or 75 cm^2 tissue culture flasks for Western blot studies. […]
attributeMeasured: IC50

Observe how each entry below is paired with its result.
molecule: CCCCCCCCCCCCCC[N+](C)(CCCCCCCCCCCCCC)CCNC(=O)CCC(=O)O[C@@H](C)[C@H]1CCC2C3CCC4=CC(=O)CC[C@]4(C)C3CC[C@@]21C (stereo partly shown) [Compound 6e]
IC50: > 15 µM
--
molecule: CCCCCCCCCCCCCCCCCC[N+](C)(CCCCCCCCCCCCCCCCCC)CCNC(=O)CCC(=O)O[C@@H](C)[C@H]1CCC2C3CCC4=CC(=O)CC[C@]4(C)C3CC[C@@]21C (stereo partly shown) [Compound 6g]
IC50: > 15 µM

List IC50 for every entry below, keeping the order given.
1. CCCCCCCCCCCCCCCC[N+](C)(CCCCCCCCCCCCCCCC)CCNC(=O)CCC(=O)O[C@@H](C)[C@H]1CCC2C3CCC4=CC(=O)CC[C@]4(C)C3CC[C@@]21C (stereo partly shown) [Compound 6f]
2. CC(=O)[C@H]1CC[C@H]2[C@@H]3CCC4=CC(=O)CC[C@]4(C)[C@H]3CC[C@]12C [Compound 1, Progesterone]

1: > 15 µM; 2: > 20 µM

Cited source: patent US10100079B2
